- Run Description: NCI Yeast Anticancer Drug Screen. Data for the sgs1 mgt1 strain (AID 161);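 also: 0% = growth of cultures given vehicle only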
- Reported Conditions: S. cerevisiae sgs1 mgt1 strain, at 50.0 µM, hits give high values
This is part of a sample that, as a whole, favours compounds with a hit. Of some 79,000 tested, about 15% had one in any assay. Active and inactive are the calls of the source. Rule as the data show it: active = growth inhibition above about 70%; inactive = the rest.
Recorded Metric: growth inhibition

Compound	Experimental Value
[Cl][Hg][CH2]CC1CC=CCC1 (configuration not stated)	99.6% (active)
O=[N+]([O-])c1cc([N+](=O)[O-])c2cccnc2c1O	97.5% (active)
CNC(=O)ON(C(C)=O)C(=O)NC	87.7% (active)
C[CH2][Sn][CH2]C.c1cc[c]([Ge]([c]2ccccc2)[c]2ccccc2)cc1.c1cc[c]([Sn]([c]2ccccc2)[c]2ccccc2)cc1	99.5% (active)
O=c1ssc(Cl)c1Cl	89.7% (active)

Query :: Provide one value: measured growth inhibition of C[C@@]12CCC(=O)C=C1CC[C@H]1C2=CC[C@]2(C)C1CC[C@@]2(C)O (some centres not stated)
Result :: 77.5% (active)

Query :: Input C=Cc1cc(OC)c2c(c1)c(=O)oc1c2cc(OC)c2c(O)ccc(C3OC(C)C(O)C(C)(O)C3O)c21 (configuration not stated) , output reported growth inhibition.
Result :: 90.3% (active)

Query :: Quote growth inhibition reported for CCCCCCCCCCCCCCCCP(=O)(O)OCC(N)C(=O)O (configuration not stated) please.
Result :: 93.5% (active)

Query :: Give a short answer stating reported growth inhibition for C[N+](C)(C)CC1CCCC(C[N+](C)(C)C)C1=O (configuration not stated) .
Result :: 68.3% (inactive)

Query :: Please give measured growth inhibition of the following entry: O=[C-]CCCCCC[C-]=O.[C-]#[O+].[C-]#[O+].[C-]#[O+].[C-]#[O+].[Fe+6].[Fe+6].[c-]1[c-][c-][cH-][c-]1.[c-]1[c-][c-][cH-][c-]1
Result :: 96.8% (active)

Query :: Answer with the recorded growth inhibition of CN[C@H]1C[C@@H]2O[C@@](C)([C@H]1OC)n1c3ccccc3c3c4c(c5c6ccccc6n2c5c31)C(=O)NC4 only.
Result :: 90.6% (active)

Query :: Provide one value: measured growth inhibition of Cn1c(=O)c2[nH]cnc2n(C)c1=O.[CH2-]C(Cc1cccc2cc(C(=O)O)c(=O)oc12)OC.[Hg+2].[OH-] (configuration not stated)
Result :: 93.5% (active)

Query :: Look up growth inhibition of CC(C)[O-].CC(C)[O-].[O-]c1cccc2cccnc12.[O-]c1cccc2cccnc12.[Ti+4] and report it.
Result :: 37.6% (inactive)

---

Entries and their measured growth inhibition follow.
- Run Description: NCI Yeast Anticancer Drug Screen. Data for the rad18 strain (AID 177)
- Reported Conditions: S. cerevisiae rad18 mutant growth inhibition; at 100.0 µM; hits give high values
The panel holds about 79,000 compounds, 15% with a hit somewhere; the sample as a whole holds those more often.
A number alone suffices; assume %.

Examples from the recorded data:
                                   compound    recorded_metric  experimental_value
0  CS(=O)(=O)OCCN(CCOS(C)(=O)=O)c1ccc(C=O)cc1  growth inhibition                  96
1  [O-][n+]1c2cccc(O)c2[n+]([O-])c2cccc(O)c21  growth inhibition                  94
2             C/C(=N\O)c1ccc2ccc3ccccc3c2c1  growth inhibition                  94
3                           Oc1cccc2cccnc12  growth inhibition                  97
4    CCN(CCCl)CCCCNc1c2ccccc2nc2ccc(OC)cc12  growth inhibition                  95

Next compound, please.
Query :: Return reported growth inhibition. Input compound: CC1CN1C1=C(Cl)C(=O)C(N2CC2C)=C(Cl)C1=O (centres undefined)
Result :: 97
